Experimental conditions: in DMF, 290.65 K
Recorded metric: solubility (mole fraction)
Answer with the value's number alone.

GET /values?readout=solubility (mole fraction)&item= c1ccc(-c2nnn[nH]2)cc1 0.244

====

Experimental conditions: in 1,4-dioxane, 290.65 K
Recorded metric: solubility (mole fraction)
Answer with the value's number alone.

GET /values?readout=solubility (mole fraction)&item= c1ccc(-c2nnn[nH]2)cc1 0.0109

====

Experimental conditions: in toluene, 318.15 K
Recorded metric: solubility (mole fraction)

GET /values?readout=solubility (mole fraction)&item= c1ccc(-c2nnn[nH]2)cc1 0.000165

====

Experimental conditions: in n-propanol, 313.15 K
Recorded metric: solubility (mole fraction)
Answer with the value's number alone.

GET /values?readout=solubility (mole fraction)&item= c1ccc(-c2nnn[nH]2)cc1 0.0221

====

Experimental conditions: in 2-butanone, 313.15 K
Recorded metric: solubility (mole fraction)
Answer with the value's number alone.

GET /values?readout=solubility (mole fraction)&item= c1ccc(-c2nnn[nH]2)cc1 0.026

====

Experimental conditions: in 1,4-dioxane, 313.15 K
Recorded metric: solubility (mole fraction)
Answer with the value's number alone.

GET /values?readout=solubility (mole fraction)&item= c1ccc(-c2nnn[nH]2)cc1 0.0165

====

Experimental conditions: in isopropanol, 283.15 K
Recorded metric: solubility (mole fraction)
Answer with the value's number alone.

GET /values?readout=solubility (mole fraction)&item= c1ccc(-c2nnn[nH]2)cc1 0.0141

====

Experimental conditions: in acetone, 318.15 K
Recorded metric: solubility (mole fraction)
Answer with the value's number alone.

GET /values?readout=solubility (mole fraction)&item= c1ccc(-c2nnn[nH]2)cc1 0.0302

====

Experimental conditions: in n-propanol, 315.65 K
Recorded metric: solubility (mole fraction)

GET /values?readout=solubility (mole fraction)&item= c1ccc(-c2nnn[nH]2)cc1 0.023

====

Experimental conditions: in acetone, 313.15 K
Recorded metric: solubility (mole fraction)
Answer with the value's number alone.

GET /values?readout=solubility (mole fraction)&item= c1ccc(-c2nnn[nH]2)cc1 0.0278

====

Experimental conditions: in ethanol, 300.65 K
Recorded metric: solubility (mole fraction)
Answer with the value's number alone.

GET /values?readout=solubility (mole fraction)&item= c1ccc(-c2nnn[nH]2)cc1 0.0209

====

Experimental conditions: in methanol, 300.65 K
Recorded metric: solubility (mole fraction)

GET /values?readout=solubility (mole fraction)&item= c1ccc(-c2nnn[nH]2)cc1 0.0219

====

Experimental conditions: in cyclohexane, 313.15 K
Recorded metric: solubility (mole fraction)
Answer with the value's number alone.

GET /values?readout=solubility (mole fraction)&item= c1ccc(-c2nnn[nH]2)cc1 9.6e-06

====

Experimental conditions: in 1,4-dioxane, 318.15 K
Recorded metric: solubility (mole fraction)

GET /values?readout=solubility (mole fraction)&item= c1ccc(-c2nnn[nH]2)cc1 0.018

====

Experimental conditions: in ethanol, 315.65 K
Recorded metric: solubility (mole fraction)
Answer with the value's number alone.

GET /values?readout=solubility (mole fraction)&item= c1ccc(-c2nnn[nH]2)cc1 0.0277

====

Experimental conditions: in ethanol, 290.65 K
Recorded metric: solubility (mole fraction)
Answer with the value's number alone.

GET /values?readout=solubility (mole fraction)&item= c1ccc(-c2nnn[nH]2)cc1 0.0172

====

Experimental conditions: in isopropanol, 295.65 K
Recorded metric: solubility (mole fraction)
Answer with the value's number alone.

GET /values?readout=solubility (mole fraction)&item= c1ccc(-c2nnn[nH]2)cc1 0.0179
